# system: recombinant human GR (Homo sapiens, UniProt P04150)
# Construct: purchased Panvera/Invitrogen P2812 (kit P2893)
# experimentSummary: Human Glucocorticoid Receptor (GR) Assay (fluorescence polarization, Panvera/Invitrogen kit)
# Type: binding
# reportedConditions: fluorescence polarization; GS Red tracer; 2 hours at room temperature; 100% control 10 μM Dexamethasone; read-out: Inhibition of GR binding, IC50
pIC50: −log10 of the molar value.
Entries and their measured pIC50 follow.
endpointName: pIC50

• C[C@]12Cc3cnn(-c4ccc(F)cc4F)c3C=C1CC[C@@H]1[C@@H]2[C@@H](O)C[C@@]2(C)[C@H]1CC[C@]2(OC(=O)c1ccco1)C(=O)SCC#N = 7.54
• Cc1nnsc1C(=O)O[C@]1(C(=O)SCC#N)CC[C@H]2[C@@H]3CCC4=Cc5c(cnn5-c5ccc(F)cc5)C[C@]4(C)[C@H]3[C@@H](O)C[C@@]21C = 8.23
• COCC(=O)O[C@]1(C(=O)SCC#N)CC[C@H]2[C@@H]3CCC4=Cc5c(cnn5-c5ccc(F)cc5)C[C@]4(C)[C@@]3(F)[C@@H](O)C[C@@]21C = 8.48

---

# system: recombinant human GR (Homo sapiens, UniProt P04150)
# Construct: purchased Panvera/Invitrogen P2812 (kit P2893)
# Sequence (P04150 1-777): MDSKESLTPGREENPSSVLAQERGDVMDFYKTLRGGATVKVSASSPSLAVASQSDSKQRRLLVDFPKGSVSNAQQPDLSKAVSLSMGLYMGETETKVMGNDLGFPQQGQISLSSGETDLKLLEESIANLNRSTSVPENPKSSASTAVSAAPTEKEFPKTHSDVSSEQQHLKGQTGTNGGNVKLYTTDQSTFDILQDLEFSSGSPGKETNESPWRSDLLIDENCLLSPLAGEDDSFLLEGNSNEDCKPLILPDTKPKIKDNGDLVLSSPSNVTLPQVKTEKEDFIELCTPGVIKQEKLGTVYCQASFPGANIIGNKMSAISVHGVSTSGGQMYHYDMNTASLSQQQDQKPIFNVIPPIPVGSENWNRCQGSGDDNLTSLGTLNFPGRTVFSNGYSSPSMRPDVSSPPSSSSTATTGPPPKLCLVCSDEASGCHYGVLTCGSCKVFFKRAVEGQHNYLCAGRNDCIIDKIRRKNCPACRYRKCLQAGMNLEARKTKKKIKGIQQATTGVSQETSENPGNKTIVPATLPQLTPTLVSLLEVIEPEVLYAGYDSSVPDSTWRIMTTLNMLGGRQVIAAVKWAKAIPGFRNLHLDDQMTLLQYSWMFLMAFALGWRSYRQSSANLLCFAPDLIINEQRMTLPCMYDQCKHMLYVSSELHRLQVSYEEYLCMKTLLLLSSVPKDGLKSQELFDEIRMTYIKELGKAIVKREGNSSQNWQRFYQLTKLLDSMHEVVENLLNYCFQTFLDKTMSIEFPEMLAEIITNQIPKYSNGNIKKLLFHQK
# experimentSummary: Human Glucocorticoid Receptor (GR) Assay (fluorescence polarization, Panvera/Invitrogen kit)
# Format: binding
# reportedConditions: fluorescence polarization; GS Red tracer; 2 hours at room temperature; 100% control 10 μM Dexamethasone; read-out: Inhibition of GR binding, IC50
Entries and their measured IC50 follow.
endpointName: IC50 (nM)

• Cn1cc(C(=O)O[C@]2(C(=O)SCCO)CC[C@H]3[C@@H]4CCC5=Cc6c(cnn6-c6ccc(F)cc6)C[C@]5(C)[C@H]4[C@@H](O)C[C@@]32C)nn1 = 3.5
• CCC(=O)O[C@]1(C(=O)SCF)CC[C@H]2[C@@H]3C[C@H](C)C4=Cc5c(cnn5-c5ccc(F)cc5)C[C@]4(C)[C@H]3[C@@H](O)C[C@@]21C = 49
• CC(=O)O[C@]1(C(=O)CSC(C)=O)CC[C@H]2[C@@H]3CCC4=Cc5c(cnn5-c5ccc(F)cc5)C[C@]4(C)[C@H]3[C@@H](O)C[C@@]21C = 5.4
• CCC(=O)O[C@]1(C(=O)SCF)CC[C@H]2[C@@H]3CCC4=Cc5c(cnn5-c5ccc(F)nc5)C[C@]4(C)[C@H]3[C@@H](O)C[C@@]21C = 2.1
• C#CCSC(=O)[C@@]1(OC(=O)CC)CC[C@H]2[C@@H]3CCC4=Cc5c(cnn5-c5ccc(F)cc5)C[C@]4(C)[C@H]3[C@@H](O)C[C@@]21C = 7.7
• CSCSC(=O)[C@@]1(OC(C)=O)CC[C@H]2[C@@H]3CCC4=Cc5c(cnn5-c5ccc(F)cc5)C[C@]4(C)[C@H]3[C@@H](O)C[C@@]21C = 18
• CC(=O)O[C@]1(C(=O)CSC#N)CC[C@H]2[C@@H]3CCC4=Cc5c(cnn5-c5ccc(F)cc5)C[C@]4(C)[C@H]3[C@@H](O)C[C@@]21C = 5.9
• C[C@]12Cc3cnn(-c4ccc(F)cc4)c3C=C1CC[C@@H]1[C@@H]2[C@@H](O)C[C@@]2(C)[C@H]1CC[C@]2(OC(=O)c1nccs1)C(=O)SCF = 3.2
• Cn1cc(C(=O)O[C@]2(C(=O)SCC#N)CC[C@H]3[C@@H]4CCC5=Cc6c(cnn6-c6ccc(F)cc6)C[C@]5(C)[C@H]4[C@@H](O)C[C@@]32C)nn1 = 2.5
• CSCOC(=O)[C@@]1(O)CC[C@H]2[C@@H]3CCC4=Cc5c(cnn5-c5ccc(F)cc5)C[C@]4(C)[C@H]3[C@@H](O)C[C@@]21C = 7
